System: 349418-098-R-PDC complex spheroid viability
PROTOCOL SUMMARY: Anticancer human tumor 349418-098-R-PDC patient-derived lung adenocarcinoma cell line growth inhibition [RAS]
TEST CONDITIONS: second compound 0.03 µM; first compound 0.003 µM; stronger effect = lower value
QUANTITY KIND: viability, T/C (%)
Numbers only, in %.

Take each entry in turn and give its viability, T/C.
1. CCc1c2c(nc3ccc(O)cc13)-c1cc3c(c(=O)n1C2)COC(=O)[C@]3(O)CC + CCn1c(-c2cc(N3CCN(C)CC3)cnc2C(C)OC)c2c3cc(ccc31)-c1csc(n1)CC(NC(=O)C1CC1C)C(=O)N1CCCC(N1)C(=O)OCC(C)(C)C2
2. CCc1c2c(nc3ccc(O)cc13)-c1cc3c(c(=O)n1C2)COC(=O)[C@]3(O)CC + CCn1c(-c2cccnc2C(C)OC)c2c3cc(ccc31)N1CCOC(CC(NC(=O)C(C(C)C)N(C)C(=O)C3(F)CCN(C(=O)C#CC(C)(C)N(C)C)CC3)C(=O)N3CCCC(N3)C(=O)OCC(C)(C)C2)C1
3. CC1(C)CCC(Nc2ncc(C(F)(F)F)c(-c3c[nH]c4c(P(C)(C)=O)c(C#N)ccc34)n2)CN1 (centres undefined) + CCn1c(-c2cc(N3CCN(C)CC3)cnc2C(C)OC)c2c3cc(ccc31)-c1csc(n1)CC(NC(=O)C1CC1C)C(=O)N1CCCC(N1)C(=O)OCC(C)(C)C2
4. CC1(C)CCC(Nc2ncc(C(F)(F)F)c(-c3c[nH]c4c(P(C)(C)=O)c(C#N)ccc34)n2)CN1 (centres undefined) + CCn1c(-c2cccnc2C(C)OC)c2c3cc(ccc31)N1CCOC(CC(NC(=O)C(C(C)C)N(C)C(=O)C3(F)CCN(C(=O)C#CC(C)(C)N(C)C)CC3)C(=O)N3CCCC(N3)C(=O)OCC(C)(C)C2)C1

[38, 45.1, 20.5, 21.2]

---

Would you kindly list viability, T/C for each of these molecules?
Tested on: 349418-098-R-PDC complex spheroid viability
PROTOCOL SUMMARY: Anticancer human tumor 349418-098-R-PDC cell line growth inhibition [RAS];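 further: spheroids exposed to compound for seven days before viability readout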
TEST CONDITIONS: second compound 0.0949 µM; first compound 1 µM; stronger effect = lower value
Numbers only, in %.

In the examples that follow, each entry is paired with its recorded viability, T/C.
1. CC(C)NCC(C(=O)N1CCN(c2ncnc3c2C(C)CC3O)CC1)c1ccc(Cl)cc1 (configuration not stated) + CCn1c(-c2cccnc2C(C)OC)c2c3cc(ccc31)N1CCOC(CC(NC(=O)C(C(C)C)N(C)C(=O)C3(F)CCN(C(=O)C#CC(C)(C)N(C)C)CC3)C(=O)N3CCCC(N3)C(=O)OCC(C)(C)C2)C1 | 32.5
2. O=C(c1ccc(F)c(F)c1Nc1ccc(I)cc1F)N1CC(O)([C@@H]2CCCCN2)C1 + CCn1c(-c2cc(N3CCN(C)CC3)cnc2C(C)OC)c2c3cc(ccc31)-c1csc(n1)CC(NC(=O)C1CC1C)C(=O)N1CCCC(N1)C(=O)OCC(C)(C)C2 | 4.24
3. Nc1ccn(C2OC(CO)C(O)C2(F)F)c(=O)n1 (configuration not stated) + CCn1c(-c2cccnc2C(C)OC)c2c3cc(ccc31)N1CCOC(CC(NC(=O)C(C(C)C)N(C)C(=O)C3(F)CCN(C(=O)C#CC(C)(C)N(C)C)CC3)C(=O)N3CCCC(N3)C(=O)OCC(C)(C)C2)C1 | 4.01
4. C=CC(=O)Nc1cc(Nc2nccc(-c3cn(C)c4ccccc34)n2)c(OC)cc1N(C)CCN(C)C + CCn1c(-c2cccnc2C(C)OC)c2c3cc(ccc31)N1CCOC(CC(NC(=O)C(C(C)C)N(C)C(=O)C3(F)CCN(C(=O)C#CC(C)(C)N(C)C)CC3)C(=O)N3CCCC(N3)C(=O)OCC(C)(C)C2)C1 | 65.3

Take each entry in turn and give its viability, T/C.
1. C=CC(=O)N1CCN(c2nc(OCC3CCCN3C)nc3c(F)c(-c4nc(N)cc(C)c4C(F)(F)F)c(Cl)cc23)C(C)C1 (configuration not stated) + CCn1c(-c2cc(N3CCN(C)CC3)cnc2C(C)OC)c2c3cc(ccc31)-c1csc(n1)CC(NC(=O)C1CC1C)C(=O)N1CCCC(N1)C(=O)OCC(C)(C)C2
2. C[C@@H](NC(=O)c1ncnc(N)c1Cl)c1ncc(C(=O)Nc2cc(C(F)(F)F)c(Cl)cn2)s1 + CCn1c(-c2cc(N3CCN(C)CC3)cnc2C(C)OC)c2c3cc(ccc31)-c1csc(n1)CC(NC(=O)C1CC1C)C(=O)N1CCCC(N1)C(=O)OCC(C)(C)C2
3. CCC(CC)c1cc(NC2CCC(N)C2)n2nccc2n1 (configuration not stated) + CCn1c(-c2cccnc2C(C)OC)c2c3cc(ccc31)N1CCOC(CC(NC(=O)C(C(C)C)N(C)C(=O)C3(F)CCN(C(=O)C#CC(C)(C)N(C)C)CC3)C(=O)N3CCCC(N3)C(=O)OCC(C)(C)C2)C1

1. 102
2. 35
3. 52.4

---

Tested on: 349418-098-R-PDC complex spheroid viability
PROTOCOL SUMMARY: Anticancer human tumor 349418-098-R-PDC cell line growth inhibition [RAS];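 further: spheroids exposed to compound for seven days before viability readout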
TEST CONDITIONS: second compound 0.003 µM; first compound 0.1 µM; stronger effect = lower value
Would you kindly list viability, T/C for each of these molecules?

In the examples that follow, each entry is paired with its recorded viability, T/C.
1) CC1(O)CCCC1n1c(=O)c(C(F)F)cc2cnc(NC3CCN(S(C)(=O)=O)CC3)nc21 (centres undefined) + CCn1c(-c2cccnc2C(C)OC)c2c3cc(ccc31)N1CCOC(CC(NC(=O)C(C(C)C)N(C)C(=O)C3(F)CCN(C(=O)C#CC(C)(C)N(C)C)CC3)C(=O)N3CCCC(N3)C(=O)OCC(C)(C)C2)C1 | 38.4%
2) CC(Nc1ccc2c(c1)OCCn1cc(N3C(=O)OCC3C(F)F)nc1-2)C(N)=O (centres undefined) + CCn1c(-c2cccnc2C(C)OC)c2c3cc(ccc31)N1CCOC(CC(NC(=O)C(C(C)C)N(C)C(=O)C3(F)CCN(C(=O)C#CC(C)(C)N(C)C)CC3)C(=O)N3CCCC(N3)C(=O)OCC(C)(C)C2)C1 | 56.2%
3) CC(Nc1ccc2c(c1)OCCn1cc(N3C(=O)OCC3C(F)F)nc1-2)C(N)=O (centres undefined) + CCn1c(-c2cc(N3CCN(C)CC3)cnc2C(C)OC)c2c3cc(ccc31)-c1csc(n1)CC(NC(=O)C1CC1C)C(=O)N1CCCC(N1)C(=O)OCC(C)(C)C2 | 49.9%

Let's switch to this molecule now.
I would be grateful if you could share the reported viability, T/C for Cc1nc(N2CCC3(CC2)COC(C)C3N)c(CO)nc1Sc1ccnc(N)c1Cl (centres undefined) + CCn1c(-c2cc(N3CCN(C)CC3)cnc2C(C)OC)c2c3cc(ccc31)-c1csc(n1)CC(NC(=O)C1CC1C)C(=O)N1CCCC(N1)C(=O)OCC(C)(C)C2 .
103%

---

Test system: 349418-098-R-PDC complex spheroid viability
PROTOCOL SUMMARY: Anticancer human tumor 349418-098-R-PDC cell line growth inhibition [RAS];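 further: spheroids exposed to compound for seven days before viability readout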
TEST CONDITIONS: second compound 0.3 µM; first compound 0.00316 µM; stronger effect = lower value
# label = yes if viability, T/C < 30% else no

Answered examples (6):
1) Nc1ccn(C2OC(CO)C(O)C2(F)F)c(=O)n1 (stereo not drawn) + CCn1c(-c2cccnc2C(C)OC)c2c3cc(ccc31)N1CCOC(CC(NC(=O)C(C(C)C)N(C)C(=O)C3(F)CCN(C(=O)C#CC(C)(C)N(C)C)CC3)C(=O)N3CCCC(N3)C(=O)OCC(C)(C)C2)C1 | yes
2) C=CC(=O)N1CCN(c2nc(OCC3CCCN3C)nc3c(F)c(-c4nc(N)cc(C)c4C(F)(F)F)c(Cl)cc23)C(C)C1 (stereo not drawn) + CCn1c(-c2cccnc2C(C)OC)c2c3cc(ccc31)N1CCOC(CC(NC(=O)C(C(C)C)N(C)C(=O)C3(F)CCN(C(=O)C#CC(C)(C)N(C)C)CC3)C(=O)N3CCCC(N3)C(=O)OCC(C)(C)C2)C1 | no
3) Nc1ccn(C2OC(CO)C(O)C2(F)F)c(=O)n1 (stereo not drawn) + CCn1c(-c2cc(N3CCN(C)CC3)cnc2C(C)OC)c2c3cc(ccc31)-c1csc(n1)CC(NC(=O)C1CC1C)C(=O)N1CCCC(N1)C(=O)OCC(C)(C)C2 | no
4) CC(C)n1nc(-c2ccc3oc(N)nc3c2)c2c(N)ncnc21 + CCn1c(-c2cc(N3CCN(C)CC3)cnc2C(C)OC)c2c3cc(ccc31)-c1csc(n1)CC(NC(=O)C1CC1C)C(=O)N1CCCC(N1)C(=O)OCC(C)(C)C2 | no
5) C=CC(=O)N1CCN(c2nc(OCC3CCCN3C)nc3c(F)c(-c4nc(N)cc(C)c4C(F)(F)F)c(Cl)cc23)C(C)C1 (stereo not drawn) + CCn1c(-c2cc(N3CCN(C)CC3)cnc2C(C)OC)c2c3cc(ccc31)-c1csc(n1)CC(NC(=O)C1CC1C)C(=O)N1CCCC(N1)C(=O)OCC(C)(C)C2 | no
6) CC(C)n1nc(-c2ccc3oc(N)nc3c2)c2c(N)ncnc21 + CCn1c(-c2cccnc2C(C)OC)c2c3cc(ccc31)N1CCOC(CC(NC(=O)C(C(C)C)N(C)C(=O)C3(F)CCN(C(=O)C#CC(C)(C)N(C)C)CC3)C(=O)N3CCCC(N3)C(=O)OCC(C)(C)C2)C1 | yes

Is the reported viability, T/C for C=CC(=O)Nc1cc(Nc2nccc(-c3cn(C)c4ccccc34)n2)c(OC)cc1N(C)CCN(C)C + CCn1c(-c2cccnc2C(C)OC)c2c3cc(ccc31)N1CCOC(CC(NC(=O)C(C(C)C)N(C)C(=O)C3(F)CCN(C(=O)C#CC(C)(C)N(C)C)CC3)C(=O)N3CCCC(N3)C(=O)OCC(C)(C)C2)C1 strictly below 30%?
no

Values were extracted from PubChem BioAssay AID2060904.
